# PROTOCOL: Retention time of the compound
# Type: physicochemical
Measured Retention_time, listed per entry.
OUTCOME_MEASURE: Retention_time (min)

>  <COMPOUND_STRUCTURE>
O=C(OCCCCc1ccccc1)n1cccn1

>  <RECORDED_NUMBER>
3.779

$$$$
>  <COMPOUND_STRUCTURE>
N#Cc1cnn(C(=O)OCc2ccc(Oc3ccccc3)cc2)c1

>  <RECORDED_NUMBER>
3.92

$$$$
>  <COMPOUND_STRUCTURE>
N#Cc1cnn(C(=O)NCCCCCc2ccccc2)c1

>  <RECORDED_NUMBER>
4.125

$$$$
>  <COMPOUND_STRUCTURE>
O=C(OCCCCCc1ccccc1)n1cccn1

>  <RECORDED_NUMBER>
4.159

$$$$
>  <COMPOUND_STRUCTURE>
Cc1cnn(C(=O)N2CCN(Cc3ccc(OCc4ccccc4)cc3)CC2)c1

>  <RECORDED_NUMBER>
3.899

$$$$

Each recorded value in this set is attributed to ChEMBL document CHEMBL3352336.
